These data points were gathered from PubChem BioAssay (NCI).

# Tested on: SK-MEL-2 melanoma
# Experiment Notes: NCI-60 one-dose screen, 48 h
# Condition Label: 10 µM unless noted
# Description: Growth inhibition of the SK-MEL-2 human tumor cell line is measured as a screen for anti-cancer activity. Cells are grown in 96 well plates and exposed to the test compound for 48 hours. Compounds are tested at a single concentration, which is 10^-5 M for most compounds. The reported endpoint is percent growth (GI% or GIPRCNT), where numbers from 0 - 100% represent growth inhibition, and numbers from -100% - 0 represent cell death. For example, a value of 40 represents 60% growth inhibition. […]
About 83,000 compounds went through this panel and 20% of them were active in at least one assay; those are over-represented in the sample as a whole. Activity calls are given as the source filed them. Rule for the calls: active = growth percent below 10; inactive = the rest.
Classes used: true (active), false (inactive)

Compound: Cn1c(=O)c2nc(/C=C/c3ccccc3)c(=O)[nH]c2n(C)c1=S
Measurement Target: SK-MEL-2 melanoma
Discrete Label: false

Compound: O=C1C(Cl)=C(NCCCCCCNC2=C(Cl)C(=O)c3ccccc3C2=O)C(=O)c2ccccc21
Measurement Target: SK-MEL-2 melanoma
Discrete Label: false

Compound: CC1(C)COB(OCC(C)(C)COB2OCC(C)(C)CO2)OC1
Measurement Target: SK-MEL-2 melanoma
Discrete Label: false

Compound: CC(=O)Oc1ccc(N2C(=O)C(Cl)=C(Nc3cccc(C(F)(F)F)c3)C2=O)cc1
Measurement Target: SK-MEL-2 melanoma
Discrete Label: false

Compound: COc1ccc2[nH]c(C(=O)N3CCN(C(=O)OCc4ccc5c(Cl)cc(Cl)c(O)c5n4)CC3)cc2c1
Measurement Target: SK-MEL-2 melanoma
Discrete Label: true

Compound: Oc1c(I)cc(I)cc1CNCCN(Cc1ccccn1)Cc1ccccn1
Measurement Target: SK-MEL-2 melanoma
Discrete Label: true

Compound: Fc1ccc(CNc2c3ccccc3nc3ccccc23)c(F)c1
Measurement Target: SK-MEL-2 melanoma
Discrete Label: false

Compound: CCC(=C(c1ccc(OCCN2CCCCC2)cc1)c1ccc(OCCN2CCCCC2)cc1)c1ccc(Cl)cc1
Measurement Target: SK-MEL-2 melanoma
Discrete Label: true

Compound: Cc1ccc(CNc2ccc3nc(CCC4CCCCC4)[nH]c3c2)cc1
Measurement Target: SK-MEL-2 melanoma
Discrete Label: false

Compound: COc1ccc2c(c1)CC[C@H](O)/C2=C/c1cc(OC)c(OC)c(OC)c1
Measurement Target: SK-MEL-2 melanoma
Discrete Label: false

Compound: COc1ccc(C2=Nc3c(N)nc(N)nc3NC(c3cccc(Nc4ccnc5cc(C(F)(F)F)ccc45)c3)C2)cc1 (centres undefined)
Measurement Target: SK-MEL-2 melanoma
Discrete Label: false

Compound: C#COc1cccc(Nc2c(C#N)cnc3ncc(NC(=O)CCl)cc23)c1
Measurement Target: SK-MEL-2 melanoma
Discrete Label: false

Compound: O=C(CSC(=S)n1cnnc1)NC(=O)c1ccccc1
Measurement Target: SK-MEL-2 melanoma
Discrete Label: false

Compound: CC(C)=CCCC(C)c1ccc(C)c2c1OCN(CCCCCO)C2 (centres undefined)
Measurement Target: SK-MEL-2 melanoma
Discrete Label: false

Compound: COc1cc2c(cc1OC)C(C)N(S(N)(=O)=O)CC2 (centres undefined)
Measurement Target: SK-MEL-2 melanoma
Discrete Label: false

Compound: C#CCOc1ccc2ncnc(Nc3ccc(NC(=O)C=C)cc3)c2c1
Measurement Target: SK-MEL-2 melanoma
Discrete Label: true

Compound: C[PH+](c1nc2ccccc2nc1[PH+](C)C(C)(C)C)C(C)(C)C.C[PH+](c1nc2ccccc2nc1[PH+](C)C(C)(C)C)C(C)(C)C.[Au+].[Cl-] (centres undefined)
Measurement Target: SK-MEL-2 melanoma
Discrete Label: true

Compound: CSc1oc(C)nc1[P+](c1ccccc1)(c1ccccc1)c1ccccc1
Measurement Target: SK-MEL-2 melanoma
Discrete Label: false

Compound: COc1ccc(C(O)c2cc3c(N)c(C(=O)Nc4cccc(Br)c4)sc3nc2C)cc1 (centres undefined)
Measurement Target: SK-MEL-2 melanoma
Discrete Label: false

Compound: Oc1c(I)cc(I)cc1CNCc1ccccn1
Measurement Target: SK-MEL-2 melanoma
Discrete Label: false

Compound: CSc1nc2ccccc2cc1/C=[N+](\[O-])c1ccccc1
Measurement Target: SK-MEL-2 melanoma
Discrete Label: false

Compound: Cn1ccc(=O)c(C(=O)Nc2nsc3ccc([N+](=O)[O-])cc23)c1
Measurement Target: SK-MEL-2 melanoma
Discrete Label: false

Compound: CC1OC(n2c3ccccc3c3c4c(c5c6ccccc6[nH]c5c32)C(=O)N(CCN2CCCC2)C4=O)CC(O)C1O (centres undefined)
Measurement Target: SK-MEL-2 melanoma
Discrete Label: false

Compound: CCOC(=O)c1ccc(NC(=O)c2nc(-c3cc(OC)c(OC)c(OC)c3)n(-c3ccc(Cl)cc3)n2)cc1
Measurement Target: SK-MEL-2 melanoma
Discrete Label: false

###

# System: HOP-92 NSCLC
# Experiment Notes: NCI-60 one-dose screen, 48 h
# Condition Label: 10 µM unless noted
Compounds without any hit were thinned out: in the full panel of roughly 83,000, 20% have a hit. The source made the active and inactive calls. Rule for the calls: active = growth percent below 10; inactive = the rest.
Classes used: 1 (active), 0 (inactive)

Structure: C=CC[Se]C(=O)Cc1c(C)n(C(=O)c2ccc(Cl)cc2)c2ccc(OC)cc12
Discrete Label: 1
//
Structure: Cc1c[n+](Cc2ccc3ccccc3c2)cn1Cc1ccc2ccccc2c1
Discrete Label: 1
//
Structure: Nc1cnc(C(=O)NNc2nc3cc(F)ccc3n3cccc23)cn1
Discrete Label: 0
//
Structure: Cc1[nH]c(=O)[nH]c(=O)c1Br
Discrete Label: 0
//
Structure: O=C(Nc1cccc(-c2ccc(N3CCOCC3)nn2)c1)Nc1cccc(C(F)(F)F)c1
Discrete Label: 0

###

# Tested on: M14 melanoma
# Experiment Notes: NCI-60 one-dose screen, 48 h
# Condition Label: 10 µM unless noted
This is part of a sample that, as a whole, favours compounds with a hit. Of some 83,000 tested, about 20% had one in any assay. Calls of active or inactive are those of the source. The calls were made as follows: active = growth percent below 10; inactive = the rest.
Classes used: active, inactive

Compound: CC1CCc2c(C(=O)Nc3ncc(Cc4cccc([N+](=O)[O-])c4)s3)csc2C1 (stereo not given)
Measurement Target: M14 melanoma
Discrete Label: active

Compound: Nc1n[nH]c2ccc([C@H]3[C@@H]4C5CCC(C5)[C@@H]4c4c(ccc5[nH]ncc45)N3S(=O)(=O)C3CC3)cc12 (stereo not given in full)
Measurement Target: M14 melanoma
Discrete Label: active

Compound: CCCCCN1C(=O)/C(=c2\sc3n(c2=O)C2C(NN=3)N(CC)C(=O)N2CC)c2ccccc21 (stereo not given)
Measurement Target: M14 melanoma
Discrete Label: active

Compound: COc1ccc(CNc2c3ccccc3nc3ccccc23)cc1
Measurement Target: M14 melanoma
Discrete Label: inactive

Compound: O=C(NCCNc1nccc(Nc2ccc(S(=O)(=O)Nc3ccccn3)cc2)n1)c1cccc([N+](=O)[O-])c1
Measurement Target: M14 melanoma
Discrete Label: inactive

Compound: COc1cc(/C=C2/C=C(c3ccccc3)N(CCc3ccc(S(N)(=O)=O)cc3)C2=O)cc(OC)c1OC
Measurement Target: M14 melanoma
Discrete Label: inactive

Compound: NC(=O)c1ccc(-c2c3ccccc3cc3c2ccc2ccccc23)cc1
Measurement Target: M14 melanoma
Discrete Label: inactive

Compound: Cc1ccc(-c2nc(N3CCCNCC3)c3oc(-c4ccc(C)cc4)nc3n2)cc1
Measurement Target: M14 melanoma
Discrete Label: active

Compound: N#CC1=C(N)Oc2c(sc3c(Br)cccc23)C1c1ccc(Cl)cc1 (stereo not given)
Measurement Target: M14 melanoma
Discrete Label: active

Compound: CCCCC1=C(P(=O)(O)O)N[C@H](C(=O)O)CS1
Measurement Target: M14 melanoma
Discrete Label: inactive

Compound: CCCCCCCCCCC(CN(CC)CC)C(O)c1ccccc1 (stereo not given)
Measurement Target: M14 melanoma
Discrete Label: active

Compound: CCOC(=O)C(=O)C(C(=O)OCC)c1ccccc1 (stereo not given)
Measurement Target: M14 melanoma
Discrete Label: inactive

Compound: Cc1cc(N2CCCCC2)cc(C)c1-c1csc(NC(=O)c2ccncc2)n1
Measurement Target: M14 melanoma
Discrete Label: inactive

Compound: NNc1nc(-c2cccnc2)nc2c1sc(=S)n2-c1ccccc1
Measurement Target: M14 melanoma
Discrete Label: inactive

Compound: COc1ccc2c(c1)N(CCO)C1=C(C(=O)OC1)C2c1cccc(F)c1 (stereo not given)
Measurement Target: M14 melanoma
Discrete Label: active

Compound: CCN(CC)Cc1cc(C=C2C(=O)NC(=S)NC2=O)cc(OC)c1O
Measurement Target: M14 melanoma
Discrete Label: inactive

Compound: NC(=O)CSc1oc(-c2ccccc2)nc1S(=O)(=O)c1ccc(Br)cc1
Measurement Target: M14 melanoma
Discrete Label: inactive

Compound: c1cc2c(ccc3[nH]c(-c4ccc5[nH]ncc5c4)c4c(c32)CCCC4)n1
Measurement Target: M14 melanoma
Discrete Label: inactive

Compound: Nc1nc2ccc(-c3nc4ccc5[nH]ncc5c4c4c3CCCC4)cc2s1
Measurement Target: M14 melanoma
Discrete Label: inactive

Compound: COc1cc2c(c(OC)c1OC)CCC(c1cccc(C(=O)Nc3cccc(Cl)c3)c1)O2 (stereo not given)
Measurement Target: M14 melanoma
Discrete Label: inactive

Compound: c1ccc2cc(C[n+]3ccn(CCCCCCCCCCn4cc[n+](Cc5ccc6ccccc6c5)c4)c3)ccc2c1
Measurement Target: M14 melanoma
Discrete Label: inactive

Compound: CCc1ncnc2c1ccn2C(C)c1ccc(OC)c(F)c1 (stereo not given)
Measurement Target: M14 melanoma
Discrete Label: inactive

Compound: Cc1cn(-c2cc(NC(=O)c3cccc(C#Cc4cccc5[nH]nc(N)c45)c3)cc(C(F)(F)F)c2)cn1
Measurement Target: M14 melanoma
Discrete Label: active

Compound: O=C(CN1C(=O)S/C(=C\c2ccccc2)C1=O)Nc1ncc(Cc2ccccc2Cl)s1
Measurement Target: M14 melanoma
Discrete Label: inactive

Compound: Nc1ncc(-c2ccc3ncnc(Nc4cccc(Cl)c4)c3c2)cn1
Measurement Target: M14 melanoma
Discrete Label: inactive
